System: OVCAR-3
Test: NCI tumour cell line growth inhibition, 48 h
The source made the active and inactive calls. No stated cut-off is given here; in the data, active = GI50 up to about 1.1 µM and inactive = higher.
Measured GI50 of individual entries

Example entries begin here.
Compound	GI50
O=[N+]([O-])c1ccc(N/N=C/c2ccc(OCCCCCCCCCCCO)cc2)c([N+](=O)[O-])c1	30.3 µM (inactive)
NC(=O)NNC(=O)NC12CC3CC(CC(C3)C1)C2	> 100 µM (inactive)
CC(C)(C)CC(C)(C)NC(=S)NO	> 100 µM (inactive)
Cc1ccc(/C=N/Nc2ccc3ccccc3n2)s1	5.58 µM (inactive)

Output measured GI50 for this item: `Cc1cc(C)nc(NS(=O)(=O)c2ccc(NC(=O)c3ccc(Cl)c4c(Nc5ccc(S(=O)(=O)Nc6nc(C)cc(C)n6)cc5)c5ccccc5nc34)cc2)n1` 29.2 µM (inactive)

Identify GI50 associated with the compound O=NN1C(c2ccccc2)CCCC1c1ccccc1 (stereo not given) > 41.8 µM (inactive)

Using known records, supply GI50 for `COc1ccc(OC)c([N+](=O)[O-])c1-c1nc2sc(C)cn2c1/C=N/N=C(N)N` 28.9 µM (inactive)

Using known records, supply GI50 for `COc1cc2c(cc1C)NC(=O)/C2=C/c1c(Cl)[nH]c2ccccc12` 2.26 µM (inactive)

Tell me its GI50 given `CSc1cnc2ccccc2c1Sc1cn(C)c2ccccc2c1=O` as the entry. 28.7 µM (inactive)

* * *

Tested on: XF498
Assay: NCI tumour cell line growth inhibition, 48 h
Where a name gives a salt, the structure may show the parent alone. Activity calls are given as the source filed them. No stated cut-off is given here; in the data, active = GI50 up to about 1.1 µM and inactive = higher.
Endpoint Label: GI50

Please review the following examples before continuing.
Molecule	GI50
Cc1ccc(-n2c(=S)[nH]c3ccc(Br)cc3c2=O)cc1	> 100 µM (inactive)
COc1nc(NC2OC(COC(C)=O)C(OC(C)=O)C(OC(C)=O)C2OC(C)=O)c2c(OC(C)=O)c(C)c(=O)oc2n1 (stereo unspecified)	> 100 µM (inactive)
COC(=O)c1ccc(/N=N/N(C)COc2ccc([N+](=O)[O-])cc2)cc1	> 100 µM (inactive)
OCC(CO)C1c2cccc3ccc4cccc1c4c23	> 100 µM (inactive)
CCN(CC)CCNC(=O)c1ccc(C)c(OCc2ccccc2)c1[N+](=O)[O-]	20.8 µM (inactive)

From here, focus on the item given below.
Name the recorded GI50 of the molecule listed here: COC(=O)C1=CO[C@@H](C)[C@@H]2Cn3ccc4c5ccccc5nc-4c3C[C@H]12 [ALSTONINE HYDROCHLORIDE] 49.5 µM (inactive)

* * *

System: SNB-75
Assay: NCI tumour cell line growth inhibition, 48 h
Calls of active or inactive are those of the source. No stated cut-off is given here; in the data, active = GI50 up to about 1.1 µM and inactive = higher.
Endpoint Label: GI50

Worked cases, answers included:
Compound	Measured
COc1cc(C2C(C(=O)Nc3ccc(Cl)c(Cl)c3)=C(C)NC(C)=C2C(=O)Nc2ccc(Cl)c(Cl)c2)ccc1O	10.3 µM (inactive)
Cc1ccc(S(=O)(=O)c2c(N)c3nc4ccccc4n3c3nc4ccccc4nc23)cc1	> 100 µM (inactive)

Then this compound:
Supply GI50 measured with SNB-75 for CC(CCCC1SCC2NC(=O)NC21)C(=O)O (stereo not drawn) . > 100 µM (inactive)

* * *

Test system: T47D
Assay: NCI tumour cell line growth inhibition, 48 h
The source made the active and inactive calls. No stated cut-off is given here; in the data, active = GI50 up to about 1.1 µM and inactive = higher.
Select the correct class. Options are active, inactive and nothing else.

Examples from the recorded data:
Compound	System Tested	Assigned Category
C=C(C)CCN(C(=O)OC(C)(C)C)c1cc(C(C)C)co1	T47D	inactive
CCOC(=O)NC(Nc1cccc(F)c1)(C(F)(F)F)C(F)(F)F	T47D	inactive
COc1cc2c3c(n(C)c(=O)c2cc1OC)-c1cc2c(cc1/C3=C\CCCCCBr)OCO2	T47D	inactive
CC1OC(OC2C(O)COC(OC3C(C)OC(OC4C(OC(=O)[C@]56CCC(C)(C)C[C@@H]5C5=CCC7[C@@]8(C)C[C@H](O)[C@H](OC9OC(CO)C(O)C(OC%10OC(CO)C(O)C(O)C%10O)C9O)[C@@](C)(CO)[C@@H]8CC[C@@]7(C)[C@]5(C)CC6)OCC(O)C4O)C(O)C3OC3OCC(O)(CO)C3O)C2O)C(O)C(O)C1O (some centres not stated)	T47D	inactive
COC(=O)CN1Cc2cc(C)cc(c2O)CN(CC(=O)OC)Cc2cc(C)cc(c2O)CN(CC(=O)OC)Cc2cc(C)cc(c2O)C1	T47D	inactive
CC(NS(C)(=O)=O)c1ccccc1 (configuration not stated)	T47D	inactive

Hey, what did the test say about COC1=C(C)C(=O)C2=C(C1=O)C1C3CC4=C(C(=O)C(OC)=C(C)C4=O)C(CNC(=O)C(C)O)N3C(C#N)C(C2)N1C (configuration not stated) ? active

Hi, sorry to bother you, what did the test record for `O=[N+]([O-])c1ccc(N2CCC(CCCC3CCN(c4ccc([N+](=O)[O-])cc4[N+](=O)[O-])CC3)CC2)c([N+](=O)[O-])c1` ? inactive

I'd appreciate the recorded outcome for `COc1ccc(OC)c(C#Cc2ccc(OC)c(C(=O)NCCc3ccc(F)cc3)c2)c1` from this test. inactive

From: ChEMBL document CHEMBL1201862
